Observed pIC50 for Plasminogen (Homo sapiens, UniProt P00747), reported per entry below.
# pIC50 = -log10(concentration in molar units)

Known results for compounds:
INSERT INTO results (chemical_smiles, observed_result) VALUES
  ('CC(C)c1ccc(C(=O)Nc2ccc(CN)cc2)c(O)c1', 5.32),
  ('Cc1ccc2ccc(C(=O)Nc3ccc(CN)cc3)c(O)c2c1', 5.17);

Fill in the recorded pIC50 for this compound, with Plasminogen (Homo sapiens, UniProt P00747) as test system: `Cc1ccc(C(=O)Nc2ccc(CN)cc2)c(O)c1.Cl`
Sequence (P00747 97-580 limits assumed): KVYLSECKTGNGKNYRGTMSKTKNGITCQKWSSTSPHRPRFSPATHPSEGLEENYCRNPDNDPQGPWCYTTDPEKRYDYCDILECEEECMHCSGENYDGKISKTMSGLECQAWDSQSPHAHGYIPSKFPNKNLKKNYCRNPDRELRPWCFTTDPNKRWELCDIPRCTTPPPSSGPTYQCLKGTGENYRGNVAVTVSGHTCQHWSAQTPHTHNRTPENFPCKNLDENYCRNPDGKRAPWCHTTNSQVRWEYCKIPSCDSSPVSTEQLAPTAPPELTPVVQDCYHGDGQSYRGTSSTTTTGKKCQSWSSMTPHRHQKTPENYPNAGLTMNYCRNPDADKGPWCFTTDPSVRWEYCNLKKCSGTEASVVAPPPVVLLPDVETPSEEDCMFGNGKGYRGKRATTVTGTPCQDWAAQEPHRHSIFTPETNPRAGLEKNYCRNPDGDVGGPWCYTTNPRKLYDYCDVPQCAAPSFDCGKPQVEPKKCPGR
Sequence (P00747 581-810 limits assumed): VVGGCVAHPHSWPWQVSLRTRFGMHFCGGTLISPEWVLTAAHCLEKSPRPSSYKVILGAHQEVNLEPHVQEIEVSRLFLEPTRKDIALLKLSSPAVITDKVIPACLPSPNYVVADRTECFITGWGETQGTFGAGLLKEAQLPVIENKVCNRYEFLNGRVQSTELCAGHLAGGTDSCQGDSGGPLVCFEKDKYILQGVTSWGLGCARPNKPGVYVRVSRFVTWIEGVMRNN
5.04

Test system Plasminogen (Homo sapiens, UniProt P00747); read-out pIC50; what value for `Cl.NCc1ccc(NC(=O)c2ccc3ccccc3c2O)cc1` ?
4.99

Query pIC50 on Plasminogen (Homo sapiens, UniProt P00747) for `Cl.NCc1ccc(NC(=O)c2cc3ccccc3cc2O)cc1`
5.13
